tested.on: Cathepsin B (Homo sapiens, UniProt P07858)
experiment.summary: Inhibitory activity against recombinant human cathepsin B
pKi: −log10 of the molar value.
// Not satisfied strictly below 7 in pKi; Satisfied otherwise

>>> label_class("CSCC[C@@H](NC(=O)OCc1ccccc1)C(=O)N[C@@H](CCc1ccccc1)CNc1ccc(N2CCCCC2)cc1")
"Satisfied"
>>> label_class("O=C(N[C@@H](CCc1ccccc1)CNc1ccc(N2CCCCC2)cc1)C1CCCN1C(=O)OCc1ccccc1 (stereo not given in full)")
"Not satisfied"
>>> label_class("O=C(CNC(=O)OCc1ccccc1)N[C@@H](CCc1ccccc1)CNc1ccc(N2CCCCC2)cc1")
"Not satisfied"
>>> label_class("O=C(N[C@H](CCc1ccccc1)C(=O)N[C@@H](CCc1ccccc1)CNc1ccc(N2CCCCC2)cc1)OCc1ccccc1")
"Not satisfied"
>>> label_class("O=C(N[C@H](Cc1ccccc1)C(=O)N[C@@H](CCc1ccccc1)CNc1ccc(N2CCCCC2)cc1)OCc1ccccc1")
"Not satisfied"
>>> label_class("CC(C)C[C@@H](NC(=O)OCc1ccccc1)C(=O)N[C@@H](CCc1ccccc1)CNc1ccc(N2CCCCC2)cc1")
"Not satisfied"
>>> label_class("CC(C)[C@@H](NC(=O)OCc1ccccc1)C(=O)N[C@@H](CCc1ccccc1)CNc1ccc(N2CCCCC2)cc1")
"Satisfied"
>>> label_class("O=C(N[C@H](CC1C=Nc2ccccc21)C(=O)N[C@@H](CCc1ccccc1)CNc1ccc(N2CCCCC2)cc1)OCc1ccccc1 (stereo not given in full)")
"Not satisfied"
>>> label_class("C[C@@H](NC(=O)OCc1ccccc1)C(=O)N[C@@H](CCc1ccccc1)CNc1ccc(N2CCCCC2)cc1")
"Not satisfied"

----------
tested.on: Cathepsin K (Homo sapiens, UniProt P43235)
Sequence (P43235 whole entry): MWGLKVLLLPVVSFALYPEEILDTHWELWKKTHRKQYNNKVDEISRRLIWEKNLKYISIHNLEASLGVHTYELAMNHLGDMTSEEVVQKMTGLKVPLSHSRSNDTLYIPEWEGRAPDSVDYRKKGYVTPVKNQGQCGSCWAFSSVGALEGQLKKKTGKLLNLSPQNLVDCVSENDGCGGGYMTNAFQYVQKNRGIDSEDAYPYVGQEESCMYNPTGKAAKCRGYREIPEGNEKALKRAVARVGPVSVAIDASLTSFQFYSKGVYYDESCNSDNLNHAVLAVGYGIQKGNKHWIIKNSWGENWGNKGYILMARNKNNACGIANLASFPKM
experiment.summary: Inhibitory activity against recombinant human cathepsin K
pIC50: −log10 of the molar value.
The reader will find reported pIC50 values listed item by item below.
measured.quantity: pIC50

>>> recorded_measurement("CC(C)C[C@@H](NC(=O)OCc1ccccc1)C(=O)N[C@@H](CCc1ccccc1)CNc1ccc(N2CCCCC2)cc1")
8.30
>>> recorded_measurement("CC(C)C[C@H](NC(=O)OCc1ccccc1)C(=O)N[C@H](CNc1ccccc1)Cc1ccccc1")
5.96
>>> recorded_measurement("O=C(N[C@H](CC1C=Nc2ccccc21)C(=O)N[C@@H](CCc1ccccc1)CNc1ccc(N2CCCCC2)cc1)OCc1ccccc1 (some centres undefined)")
7.32
>>> recorded_measurement("CC(C)[C@@H](NC(=O)OCc1ccccc1)C(=O)N[C@@H](CCc1ccccc1)CNc1ccc(N2CCCCC2)cc1")
8.40

----------
tested.on: Cathepsin K (Homo sapiens, UniProt P43235)
experiment.summary: Inhibitory activity against recombinant human cathepsin K
pIC50: −log10 of the molar value.
measured.quantity: pIC50

>>> recorded_measurement("CSCC[C@@H](NC(=O)OCc1ccccc1)C(=O)N[C@@H](CCc1ccccc1)CNc1ccc(N2CCCCC2)cc1")
8.52
>>> recorded_measurement("O=C(N[C@H](CCc1ccccc1)C(=O)N[C@@H](CCc1ccccc1)CNc1ccc(N2CCCCC2)cc1)OCc1ccccc1")
7.85
>>> recorded_measurement("C[C@@H](NC(=O)OCc1ccccc1)C(=O)N[C@@H](CCc1ccccc1)CNc1ccc(N2CCCCC2)cc1")
8.05

----------
tested.on: UniProt P07711
Sequence (P07711 whole entry): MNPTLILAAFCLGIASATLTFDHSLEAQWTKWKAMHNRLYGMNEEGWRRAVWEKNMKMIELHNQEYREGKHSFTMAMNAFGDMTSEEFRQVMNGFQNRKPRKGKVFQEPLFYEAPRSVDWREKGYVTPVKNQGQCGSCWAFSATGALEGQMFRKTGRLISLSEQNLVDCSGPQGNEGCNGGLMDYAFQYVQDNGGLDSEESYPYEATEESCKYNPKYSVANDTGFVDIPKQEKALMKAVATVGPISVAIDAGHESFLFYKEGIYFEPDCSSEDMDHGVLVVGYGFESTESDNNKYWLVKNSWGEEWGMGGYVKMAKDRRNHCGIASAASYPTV
experiment.summary: Inhibitory activity against recombinant human cathepsin L
The reader will find reported IC50 values listed item by item below.
measured.quantity: IC50 (nM)

>>> recorded_measurement("CC(C)C[C@H](NC(=O)OCc1ccccc1)C(=O)N[C@H](CNc1ccc(N2CCOCC2)cc1)Cc1ccccc1")
2
>>> recorded_measurement("CC(C)C[C@H](NC(=O)OCc1ccccc1)C(=O)N[C@H](CNc1ccc(N2CCCCC2)cc1)Cc1ccccc1")
2
>>> recorded_measurement("CC(C)C[C@@H](NC(=O)OCc1ccccc1)C(=O)N[C@@H](CCc1ccccc1)CNc1ccc(N2CCCCC2)cc1")
2
>>> recorded_measurement("CSCC[C@@H](NC(=O)OCc1ccccc1)C(=O)N[C@@H](CCc1ccccc1)CNc1ccc(N2CCCCC2)cc1")
36
>>> recorded_measurement("CC(C)[C@@H](NC(=O)OCc1ccccc1)C(=O)N[C@@H](CCc1ccccc1)CNc1ccc(N2CCCCC2)cc1")
1
